Origin of the recorded values: ChEMBL document CHEMBL5338748

measurement.target: Peptidyl-prolyl cis-trans isomerase FKBP5 (Homo sapiens, UniProt Q13451)
Sequence (Q13451 whole entry): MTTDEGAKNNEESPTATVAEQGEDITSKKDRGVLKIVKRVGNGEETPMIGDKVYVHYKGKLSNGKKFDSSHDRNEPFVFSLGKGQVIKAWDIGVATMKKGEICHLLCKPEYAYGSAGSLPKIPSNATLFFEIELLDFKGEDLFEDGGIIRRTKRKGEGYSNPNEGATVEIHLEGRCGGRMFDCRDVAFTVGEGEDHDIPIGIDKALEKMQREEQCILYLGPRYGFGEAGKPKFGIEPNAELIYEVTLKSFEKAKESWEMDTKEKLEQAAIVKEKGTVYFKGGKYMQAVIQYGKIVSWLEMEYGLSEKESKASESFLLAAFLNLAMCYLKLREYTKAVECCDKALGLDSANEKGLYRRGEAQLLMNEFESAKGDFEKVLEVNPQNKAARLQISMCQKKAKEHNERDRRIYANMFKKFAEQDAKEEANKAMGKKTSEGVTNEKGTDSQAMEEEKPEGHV
test.description: Binding affinity to FKBP51 (unknown origin) assessed as inhibition constant by fluorescence polarization assay
Listed molecules paired with reported pKi
Field pKi (float): negative decimal logarithm of the concentration in molar.

{"molecule": "COc1ccc(CC[C@@H](OC(=O)[C@@H]2CCCCN2C(=O)[C@H](c2cc(OC)c(OC)c(OC)c2)c2ccc(C#N)s2)c2cccc(OCC(=O)O)c2)cc1OC", "measurement.target": "Peptidyl-prolyl cis-trans isomerase FKBP5 (Homo sapiens, UniProt Q13451)", "pKi": 7.64}

Problem: Report pKi for COc1ccc(CC[C@@H](OC(=O)[C@@H]2CCCCN2C(=O)[C@@H](c2ccsc2)c2cc(OC)c(OC)c(OC)c2)c2cccc(OCC(=O)O)c2)cc1OC please.
Result: 6.85

----------
measurement.target: Peptidyl-prolyl cis-trans isomerase FKBP5 (Homo sapiens)
test.description: Binding affinity to FKBP51 (unknown origin) assessed as inhibition constant by fluorescence polarization assay
assay.endpoint: Ki (nM)
Please reply with the bare figure in nM and do not write the unit itself.

Problem: Report Ki for COc1ccc(CC[C@@H](OC(=O)[C@@H]2CCCCN2C(=O)[C@@H](CN2CCOCC2)c2cc(OC)c(OC)c(OC)c2)c2cccc(OCC(=O)O)c2)cc1OC please.
Result: 8

Problem: Report Ki for CC[C@@H](C(=O)N1CCCC[C@H]1C(=O)O[C@H](CCc1ccc(OC)c(OC)c1)c1cccc(OCC(=O)O)c1)c1ccc(Cl)s1 please.
Result: 210

Problem: Report Ki for COc1ccc(CC[C@@H](OC(=O)[C@@H]2CCCCN2C(=O)[C@H](c2cc(OC)c(OC)c(OC)c2)c2ccc(Cl)s2)c2cccc(OCC(=O)O)c2)cc1OC please.
Result: 4

----------
Listed compounds paired with reported half-life
test.description: Half life in C57BL/6 mouse at 10 mg/kg, ip measured after 6 hrs
Format: ADME, organism-based
cond: in vivo
Please reply with the bare figure in h and do not write the unit itself.

{"compound": "COc1ccc(CCC(OC(=O)C2CCCCN2C(=O)[C@H](c2cc(OC)c(OC)c(OC)c2)c2ccc(Cl)s2)c2cccc(OCCN3CCOCC3)c2)cc1OC (single isomer, unassigned)", "half-life / h": 4.3}

Kindly consider the entry below.
Problem: Report half-life for COc1ccc(CC[C@@H](OC(=O)[C@@H]2CCCCN2C(=O)[C@@H](CN2CCOCC2)c2cc(OC)c(OC)c(OC)c2)c2cccc(OCC(=O)O)c2)cc1OC please.
Result: 3.7

----------
test.description: Cmax in C57BL/6 mouse at 10 mg/kg, ip measured after 6 hrs
Assay type: ADME, organism-based
Parameters: time 6 hrs, dose 10 mg/kg, route ip
cond: in vivo
Listed compounds paired with reported Cmax
Please reply with the bare figure in ng/mL and do not write the unit itself.

{"compound": "COc1ccc(CC[C@@H](OC(=O)[C@@H]2CCCCN2C(=O)[C@@H](CN2CCOCC2)c2cc(OC)c(OC)c(OC)c2)c2cccc(OCC(=O)O)c2)cc1OC", "Cmax [ng/mL]": 3060}

Kindly consider the entry below.
Problem: Report Cmax for COc1ccc(CCC(OC(=O)C2CCCCN2C(=O)[C@H](c2cc(OC)c(OC)c(OC)c2)c2ccc(Cl)s2)c2cccc(OCCN3CCOCC3)c2)cc1OC (single isomer, unassigned) please.
Result: 990

----------
measurement.target: Peptidyl-prolyl cis-trans isomerase FKBP5 (Homo sapiens)
test.description: Inhibition of FKBP51 (unknown origin) expressed in HEK293T cells incubated for 2 hrs by NanoBRET assay
assay.endpoint: pIC50
Field pIC50 (float): negative decimal logarithm of the concentration in molar.

# count of solved cases: 2
{"compound": "COc1ccc(CCC(OC(=O)C2CCCCN2C(=O)[C@H](c2cc(OC)c(OC)c(OC)c2)c2ccc(C)s2)c2cccc(OCCN3CCOCC3)c2)cc1OC (single isomer, unassigned)", "pIC50": 6.21}
{"compound": "COc1ccc(CCC(OC(=O)C2CCCCN2C(=O)[C@H](c2cc(OC)c(OC)c(OC)c2)c2ccc(Cl)s2)c2cccc(OCCN3CCOCC3)c2)cc1OC (single isomer, unassigned)", "pIC50": 6.23}

Kindly consider the entry below.
Problem: Report pIC50 for COc1ccc(CC[C@@H](OC(=O)[C@@H]2CCCCN2C(=O)[C@@H](CN2CCOCC2)c2cc(OC)c(OC)c(OC)c2)c2cccc(OCC(=O)O)c2)cc1OC please.
Result: 6.71

----------
measurement.target: UniProtKB Q13451
Sequence (Q13451 whole entry): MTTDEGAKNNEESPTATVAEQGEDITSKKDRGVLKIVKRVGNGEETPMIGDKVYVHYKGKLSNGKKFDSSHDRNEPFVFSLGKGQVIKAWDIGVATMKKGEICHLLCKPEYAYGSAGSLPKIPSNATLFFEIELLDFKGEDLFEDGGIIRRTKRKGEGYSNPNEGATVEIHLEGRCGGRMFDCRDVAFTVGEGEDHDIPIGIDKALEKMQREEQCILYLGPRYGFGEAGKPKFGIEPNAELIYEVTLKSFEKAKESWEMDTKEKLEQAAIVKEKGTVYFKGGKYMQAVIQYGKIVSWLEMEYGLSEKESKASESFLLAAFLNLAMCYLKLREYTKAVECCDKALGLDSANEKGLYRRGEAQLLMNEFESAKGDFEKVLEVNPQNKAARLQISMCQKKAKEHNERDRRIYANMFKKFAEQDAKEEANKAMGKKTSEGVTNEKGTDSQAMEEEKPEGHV
test.description: Binding affinity to FKBP51 (unknown origin)
Listed compounds paired with reported pKi
Field pKi (float): negative decimal logarithm of the concentration in molar.

{"record.smiles": "COc1ccc(CC[C@H]2OC(=O)[C@@H]3CCCCN3C(=O)[C@@H](C3CCCCC3)NC(=O)C3(CC3)NC(=O)COc3cccc2c3)cc1OC", "measurement.target": "UniProtKB Q13451", "val": 6.40}

Kindly consider the entry below.
Problem: Identify the measured pKi of COc1ccc(CC[C@H]2OC(=O)[C@@H]3CCCCN3C(=O)[C@@H](C3CCCCC3)c3cc(OC)c(OC)c(c3)OC[C@H](O)[C@H](O)COc3cccc2c3)cc1OC for UniProtKB Q13451.
Result: 8.30

----------
test.description: Tmax in C57BL/6 mouse at 10 mg/kg, ip measured after 6 hrs
Assay type: ADME, organism-based
cond: in vivo
Listed compounds paired with reported Tmax
Units required after the number.

{"compound": "COc1ccc(CC[C@@H](OC(=O)[C@@H]2CCCCN2C(=O)[C@@H](CN2CCOCC2)c2cc(OC)c(OC)c(OC)c2)c2cccc(OCC(=O)O)c2)cc1OC", "assay.endpoint": "Tmax", "val": "60 min"}

Kindly consider the entry below.
Problem: Report Tmax for COc1ccc(CCC(OC(=O)C2CCCCN2C(=O)[C@H](c2cc(OC)c(OC)c(OC)c2)c2ccc(Cl)s2)c2cccc(OCCN3CCOCC3)c2)cc1OC (single isomer, unassigned) please.
Result: 30 min

----------
measurement.target: Peptidyl-prolyl cis-trans isomerase FKBP5 (Homo sapiens)
test.description: Binding affinity to FKBP51 (unknown origin) assessed as inhibition constant by fluorescence polarization assay
assay.endpoint: Ki (nM)
Please reply with the bare figure in nM and do not write the unit itself.

# count of solved cases: 9
{"compound": "COc1ccc(CC[C@@H](OC(=O)[C@@H]2CCCCN2C(=O)C(c2ccc(Cl)s2)C2CCCCC2)c2cccc(OCC(=O)O)c2)cc1OC (stereo not given in full)", "Ki / nM": 154}
{"compound": "COc1ccc(CC[C@@H](OC(=O)[C@@H]2CCCCN2C(=O)[C@H](c2cc(OC)c(OC)c(OC)c2)c2cccs2)c2cccc(OCC(=O)O)c2)cc1OC", "Ki / nM": 103}
{"compound": "COc1ccc(CCC(OC(=O)C2CCCCN2C(=O)[C@H](c2cc(OC)c(OC)c(OC)c2)c2ccc(C)s2)c2cccc(OCCN3CCOCC3)c2)cc1OC (single isomer, unassigned)", "Ki / nM": 17}
{"compound": "COc1ccc(CC[C@@H](OC(=O)[C@@H]2CCCCN2C(=O)[C@H](c2cc(OC)c(OC)c(OC)c2)c2ccc(Br)s2)c2cccc(OCC(=O)O)c2)cc1OC", "Ki / nM": 7}
{"compound": "COc1ccc(CCC(OC(=O)C2CCCCN2C(=O)[C@H](c2cc(OC)c(OC)c(OC)c2)c2ccc(Cl)s2)c2cccc(OCCN3CCOCC3)c2)cc1OC (single isomer, unassigned)", "Ki / nM": 19}
{"compound": "CCc1ccc([C@H](C(=O)N2CCCC[C@H]2C(=O)O[C@H](CCc2ccc(OC)c(OC)c2)c2cccc(OCC(=O)O)c2)c2cc(OC)c(OC)c(OC)c2)s1", "Ki / nM": 13}
{"compound": "COc1ccc(CC[C@@H](OC(=O)[C@@H]2CCCCN2C(=O)C(c2cccs2)C2CCCCC2)c2cccc(OCC(=O)O)c2)cc1OC (stereo not given in full)", "Ki / nM": 442}
{"compound": "COc1ccc(CC[C@@H](OC(=O)[C@@H]2CCCCN2C(=O)[C@H](C)c2ccc(Cl)s2)c2cccc(OCC(=O)O)c2)cc1OC", "Ki / nM": 300}
{"compound": "COc1ccc(CC[C@@H](OC(=O)[C@@H]2CCCCN2C(=O)[C@H](c2cc(OC)c(OC)c(OC)c2)C2CCCCC2)c2cccc(OCC(=O)O)c2)cc1OC", "Ki / nM": 6}

Kindly consider the entry below.
Problem: Report Ki for COc1ccc(CC[C@@H](OC(=O)[C@@H]2CCCCN2C(=O)[C@@H](c2ccccc2)c2cc(OC)c(OC)c(OC)c2)c2cccc(OCC(=O)O)c2)cc1OC please.
Result: 118
